# Measurement Description: Rat plasma pharmacokinetics by administration route
# Type: in vivo
# Condition Set: male, SD, IM 20 mg/kg
Property Name: AUC(0-inf)
The number alone won't do; follow it with the unit.

Kindly note the recorded AUC(0-inf) for CNC(C)C(=O)c1ccc2c(c1)OCO2 (stereo not shown) , which is 6370 ng·h/mL

* * *

# Measurement Description: Rat plasma pharmacokinetics by administration route
# Assay type: in vivo
# Condition Set: male, SD, IM 15 mg/kg
Property Name: half-life (min)
# output: bare number, implied unit min

Kindly note the recorded half-life for CNC(C)C(=O)c1ccc2c(c1)OCO2 (stereo not shown) [Methylone, 3,4-methylenedioxy-N-methylcathinone] , which is 44.4

* * *

# Assay Target: SERT (Rattus norvegicus)
# Measurement Description: [3H]5-HT release from rat brain synaptosomes
# Format: biochemical
# Set-up: from tissue; synaptosomes for uptake and release
# Condition Set: rat brain synaptosomes; read-out: Neurotransmitter release: EC50
Property Name: pEC50
When answering, recall that pEC50 equals minus log10 of the concentration in mol/L, and write that number alone.

Kindly note the recorded pEC50 for CNC(C)C(=O)c1ccc2c(c1)OCO2 (stereo not shown) , which is 6.21

* * *

# Measurement Description: Rat plasma pharmacokinetics by administration route
# Type: in vivo
# Condition Set: male, SD, IP 15 mg/kg
Property Name: AUC(0-inf)

Kindly note the recorded AUC(0-inf) for CNC(C)C(=O)c1ccc2c(c1)OCO2 (stereo not shown) , which is 2590 ng·h/mL

* * *

# Assay Target: SERT (Rattus norvegicus, UniProt P31652)
# Sequence (P31652 whole entry): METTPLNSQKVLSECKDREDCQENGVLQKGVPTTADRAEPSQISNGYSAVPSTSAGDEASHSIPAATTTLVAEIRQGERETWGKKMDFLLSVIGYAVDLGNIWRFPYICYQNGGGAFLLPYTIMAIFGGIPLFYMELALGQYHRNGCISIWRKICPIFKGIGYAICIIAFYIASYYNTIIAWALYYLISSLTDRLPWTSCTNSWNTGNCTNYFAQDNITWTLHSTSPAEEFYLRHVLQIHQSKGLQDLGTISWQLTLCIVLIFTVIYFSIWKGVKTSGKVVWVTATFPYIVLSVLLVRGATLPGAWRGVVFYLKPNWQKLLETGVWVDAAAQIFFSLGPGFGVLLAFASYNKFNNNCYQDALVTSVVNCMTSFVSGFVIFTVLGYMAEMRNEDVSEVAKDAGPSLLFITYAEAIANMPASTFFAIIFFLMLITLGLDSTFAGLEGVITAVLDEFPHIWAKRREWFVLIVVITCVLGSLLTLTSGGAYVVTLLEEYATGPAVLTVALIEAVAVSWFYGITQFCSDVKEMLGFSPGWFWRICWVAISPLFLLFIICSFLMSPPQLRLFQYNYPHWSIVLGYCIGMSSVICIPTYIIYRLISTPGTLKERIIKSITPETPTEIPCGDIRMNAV
# Measurement Description: [3H]5-HT release from rat brain synaptosomes
# Format: biochemical
# Set-up: from tissue; synaptosomes for uptake and release
Property Name: EC50 (µM)
# output: bare number, implied unit µM

Kindly note the recorded EC50 for CNC(C)Cc1ccc2c(c1)OCO2 (racemic) , which is 0.16

* * *

# Measurement Description: Rat plasma pharmacokinetics by administration route
# Type: in vivo
# Condition Set: male, SD, SC 15 mg/kg
Property Name: AUC(0-inf) (ng·h/mL)
# output: bare number, implied unit ng·h/mL

Kindly note the recorded AUC(0-inf) for CNC(C)C(=O)c1ccc2c(c1)OCO2 (stereo not shown) , which is 4330

* * *

# Assay Target: SERT (Rattus norvegicus, UniProt P31652)
# Measurement Description: [3H]5-HT uptake inhibition in rat brain synaptosomes
# Condition Set: read-out: Reuptake inhibition: IC50; rat brain synaptosomes
Property Name: pIC50
When answering, recall that pIC50 equals minus log10 of the concentration in mol/L, and write that number alone.

Kindly note the recorded pIC50 for CNC(C)C(=O)c1ccc2c(c1)OCO2 (stereo not shown) , which is 6.37

* * *

# Assay Target: SERT (Rattus norvegicus)
# Measurement Description: [3H]5-HT uptake inhibition in rat brain synaptosomes
Property Name: IC50 (nM)
# output: bare number, implied unit nM

Known value: SERT (Rattus norvegicus) IC50 of the compound CNC(C)Cc1ccc2c(c1)OCO2 (racemic) [MDMA, 3,4-Methylenedioxymethamphetamine] equals 1800

* * *

# Measurement Description: Rat plasma pharmacokinetics by administration route
# Assay type: in vivo
# Condition Set: male, SD, IM 20 mg/kg
Property Name: Cmax
The number alone won't do; follow it with the unit.

Kindly note the recorded Cmax for CNC(C)C(=O)c1ccc2c(c1)OCO2 (stereo not shown) [Methylone, 3,4-methylenedioxy-N-methylcathinone] , which is 5920 ng/mL
